Cited source: PubChem BioAssay (NCATS)

Test: Quantitative High-Throughput drug screen in 47 multiple myeloma cell lines against the NCATS MIPE library collection: ARP1_JJKsccF8 cell viability assay (AID 1918928; note: nearly all actives have a fitted effect of over 40% in size)
Details: ARP1 myeloma cells viability, CellTiter-Glo ATP, 48 h; series mostly up to 45.8 µM
Results filed as inconclusive are left out. Activity calls are given as the source filed them. Calls come from the whole dose curve; as a rule, active = well fitted cell-killing curve with a large enough effect; inconclusive = small, poorly fitted or top-dose-only effect, or effect the other way; inactive = no such curve, though single readings can be large or run the other way.
Outcome codes: y (active), n (inactive)

molecule: Cc1ncc([N+](=O)[O-])n1CC(C)O (stereo not given)
discrete label: n
--
molecule: O=C(O)c1cccnc1Nc1cccc(C(F)(F)F)c1
discrete label: n
--
molecule: CC(=O)NC[C@H]1CN(c2ccc(N3CCOCC3)c(F)c2)C(=O)O1
discrete label: y
--
molecule: CN1CCC(=C2c3ccccc3CCc3sccc32)CC1
discrete label: n
--
molecule: COc1ccccc1N1CCN(CCN(C(=O)C2CCCCC2)c2ccccn2)CC1
discrete label: n
--
molecule: NC(=NCc1ccccc1)NC(=O)c1nc(Cl)c(N)nc1N
discrete label: n
--
molecule: COc1ccc(C2(C#N)CCC(C(=O)O)CC2)cc1OC1CCCC1 (stereo not given)
discrete label: n
--
molecule: O=C(O)c1cc(=O)c2c(OCC(O)COc3cccc4oc(C(=O)O)cc(=O)c34)cccc2o1
discrete label: n
--
molecule: CC(C)C[C@H](NC(=O)[C@H](Cc1ccccc1)NC(=O)c1cnccn1)B(O)O
discrete label: y
--
molecule: c1cnc2cc3c(cc2n1)C1CNCC3C1
discrete label: n
--
molecule: CCOc1cc(CC(=O)N[C@@H](CC(C)C)c2ccccc2N2CCCCC2)ccc1C(=O)O
discrete label: n
--
molecule: S=c1nc[nH]c2nc[nH]c12
discrete label: y
--
molecule: CN(C)C(=O)[C@H](O)[C@H](Cc1ccccc1)NC(=O)c1cc2cc(Cl)ccc2[nH]1
discrete label: y
--
molecule: Cc1ccc(S(=O)(=O)NC(=O)NN2CC3CCCC3C2)cc1 (stereo not given)
discrete label: y
--
molecule: CC(C)(S)[C@@H](N)C(=O)O
discrete label: n
--
molecule: CC(C)[C@H](N)C(=O)OCCOCn1cnc2c(=O)[nH]c(N)nc21
discrete label: n
--
molecule: Cc1cccc(-c2[nH]ncc2-c2ccc3ncccc3n2)n1
discrete label: n
--
molecule: CCN(CC)C(=S)SSC(=S)N(CC)CC
discrete label: y
--
molecule: O=C1NC(=O)C(c2ccccc2[N+](=O)[O-])=C1Nc1ccc(O)c(Cl)c1
discrete label: n
--
molecule: Nc1nc(N)c(N=O)c(OCC2CCCCC2)n1
discrete label: y
--
molecule: CCN(CC)CCOc1ccc(Nc2ncc3cc(-c4c(Cl)cccc4Cl)c(=O)n(C)c3n2)cc1
discrete label: y
--
molecule: Nc1ccc(S(N)(=O)=O)cc1
discrete label: n
--
molecule: COC(=O)C1=C(C)NC(C)=C(C(=O)OC(C)C)C1c1cccc2nonc12 (stereo not given)
discrete label: n
--
molecule: CC[C@]1(O)C[C@H]2CN(CCc3c([nH]c4ccccc34)[C@@](C(=O)OC)(c3cc4c(cc3OC)N(C=O)[C@H]3[C@@](O)(C(=O)OC)[C@H](OC(C)=O)[C@]5(CC)C=CCN6CC[C@]43[C@@H]65)C2)C1
discrete label: y
--
molecule: CCN(CCO)CCCC(C)Nc1ccnc2cc(Cl)ccc12 (stereo not given)
discrete label: n
--
molecule: C[C@@H](c1ncncc1F)[C@](O)(Cn1cncn1)c1ccc(F)cc1F
discrete label: n
--
molecule: CN(C)CCc1c[nH]c2ccc(Cn3cncn3)cc12
discrete label: n
--
molecule: Oc1ccc(OCc2ccccc2)cc1
discrete label: y
--
molecule: Cn1c(NCCN(CCO)CCCc2ccc([N+](=O)[O-])cc2)cc(=O)n(C)c1=O
discrete label: n
--
molecule: CN(C)C(=O)COC(=O)Cc1ccc(OC(=O)c2ccc(N=C(N)N)cc2)cc1
discrete label: n
--
molecule: C=C(c1ccc(C(=O)O)cc1)c1cc2c(cc1C)C(C)(C)CCC2(C)C
discrete label: n
--
molecule: COC(=O)N[C@H](C(=O)N[C@@H](Cc1ccccc1)[C@@H](O)CN(Cc1ccc(-c2ccccn2)cc1)NC(=O)[C@@H](NC(=O)OC)C(C)(C)C)C(C)(C)C
discrete label: y
--
molecule: Cc1cc(=O)c2c(O)c3c(O)cc(=O)c4c3c3c(cc(O)c1c23)C(C)(C)C=4O
discrete label: y
--
molecule: c1ccc2[nH]c(-c3cscn3)nc2c1
discrete label: n
--
molecule: O=C(OC1C[C@H]2CC[C@@H](C1)[N+]21CCCC1)C(O)(c1ccccc1)c1ccccc1 (stereo not given in full)
discrete label: n
--
molecule: CN(C)[C@@H](CCOc1cccc2ccccc12)c1ccccc1
discrete label: y
--
molecule: COc1cc(OC)c(C(=O)CCCN2CCCC2)c(OC)c1
discrete label: n
--
molecule: NNc1nncc2ccccc12
discrete label: n
--
molecule: CCCCCCCCOc1ccccc1C(=O)Nc1ccc(C(=O)OCC[N+](C)(CC)CC)cc1
discrete label: y
--
molecule: CC(S)C(=O)NCC(=O)O (stereo not given)
discrete label: n
--
molecule: CN(c1nccc(=O)[nH]1)C1CCN(c2nc3ccccc3n2Cc2ccc(F)cc2)CC1
discrete label: n
--
molecule: O=C(NCCO[N+](=O)[O-])c1cccnc1
discrete label: n
--
molecule: C[Se]CCC(N)C(=O)O (stereo not given)
discrete label: n
--
molecule: C[C@@H](N)C1CCC(C(=O)Nc2ccncc2)CC1 (stereo not given in full)
discrete label: n
--
molecule: Cc1c(OCC(F)(F)F)ccnc1CS(=O)c1nc2ccccc2[nH]1 (stereo not given)
discrete label: n

* * *

Assay: Quantitative High-Throughput drug screen in 47 multiple myeloma cell lines against the NCATS MIPE library collection: KMS21BM_JCRB cell viability assay (AID 1918974)
Conditions: ATP luminescence, 48 h
Inconclusive results are not listed. Activity calls are given as the source filed them. Calls come from the whole dose curve; as a rule, active = well fitted cell-killing curve with a large enough effect; inconclusive = small, poorly fitted or top-dose-only effect, or effect the other way; inactive = no such curve, though single readings can be large or run the other way.
Outcome codes: y = active, n = inactive

compound: c1cnc2cc3c(cc2n1)C1CNCC3C1
discrete label: n
//
compound: CCC1=C(C)CN(C(=O)NCCc2ccc(S(=O)(=O)NC(=O)NC3CCC(C)CC3)cc2)C1=O (stereo not given)
discrete label: n
//
compound: O=C(OC1C[C@H]2CC[C@@H](C1)[N+]21CCCC1)C(O)(c1ccccc1)c1ccccc1 (stereo not given in full)
discrete label: n
//
compound: Clc1ccc(C(Cn2ccnc2)OCc2ccc(Sc3ccccc3)cc2)c(Cl)c1 (stereo not given)
discrete label: y
//
compound: CCN(CCO)CCCC(C)Nc1ccnc2cc(Cl)ccc12 (stereo not given)
discrete label: n

* * *

Assay: qHTS of pediatric cancer cell lines to identify multiple opportunities for drug repurposing: Primary screen for NB1643 cells (AID 1347099); note: nearly all actives have a fitted effect of over 50% in size
Details: NB1643 neuroblastoma viability, CellTiter-Glo luminescence, 48 h; series mostly up to 46 µM
Results filed as inconclusive are left out. Active and inactive are the calls of the source. Calls follow the shape of the dose curve; as a rule, active = well fitted cell-killing curve with a large enough effect; inconclusive = small, poorly fitted or top-dose-only effect; inactive = no such curve, though single readings can be large or run the other way. Non-standard residues stand in square brackets, D forms with d. Residues, ends and D or L forms follow the SMILES beside them. *: point of attachment. Sta = CC(C)C[C@H](N)[C@@H](O)CC(=O)O; Isovaleryl = CC(C)CC(=O)*
Outcome codes: active, inactive

molecule: Nc1ccn([C@@H]2O[C@H](CO)[C@@H](O)C2O)c(=O)n1 (some centres not stated)
discrete label: inactive
--
molecule: O=C(c1ccccc1)c1ccc2n1CCC2C(=O)O (configuration not stated)
discrete label: inactive
--
molecule: Cc1cc2c(s1)Nc1ccccc1N=C2N1CCN(C)CC1
discrete label: inactive
--
molecule: O=c1cc(N2CCOCC2)oc2c(-c3ccccc3)cccc12
discrete label: active
--
molecule: CC(=O)N1CCN(c2ccc(OC[C@H]3CO[C@](Cn4ccnc4)(c4ccc(Cl)cc4Cl)O3)cc2)CC1
discrete label: inactive
--
molecule: CC(C)[N+]1(C)[C@@H]2CC[C@H]1CC(OC(=O)C(CO)c1ccccc1)C2 (some centres not stated)
discrete label: active
--
molecule: Cc1ccc(S(=O)(=O)NC(=O)NN2CC3CCCC3C2)cc1 (configuration not stated)
discrete label: inactive
--
molecule: Oc1ccc(-c2nc(-c3ccc(F)cc3)c(-c3ccncc3)[nH]2)cc1
discrete label: active
--
molecule: NNc1nncc2ccccc12
discrete label: inactive
--
molecule: CC(C)CC(=O)N[C@H](C(=O)N[C@H](C(=O)N[C@@H](CC(C)C)[C@@H](O)CC(=O)N[C@@H](C)C(=O)N[C@@H](CC(C)C)[C@@H](O)CC(=O)O)C(C)C)C(C)C (Isovaleryl-VV[Sta]A[Sta]-OH)
discrete label: inactive
--
molecule: C[C@@H](c1ncncc1F)[C@](O)(Cn1cncn1)c1ccc(F)cc1F
discrete label: inactive
--
molecule: CCCCc1ccc2nc(NC(=O)OC)[nH]c2c1
discrete label: inactive
--
molecule: CCCCCCCCCCCCCCCCCCCCCCO
discrete label: inactive
--
molecule: O=c1c(O)c(-c2ccc(O)cc2O)oc2cc(O)cc(O)c12
discrete label: inactive
--
molecule: Cc1c(OCC(F)(F)F)ccnc1CS(=O)c1nc2ccccc2[nH]1 (configuration not stated)
discrete label: inactive
--
molecule: Cc1nc(Nc2ncc(C(=O)Nc3c(C)cccc3Cl)s2)cc(N2CCN(CCO)CC2)n1
discrete label: inactive
--
molecule: O=C(O)c1cc(=O)c2c(OCC(O)COc3cccc4oc(C(=O)O)cc(=O)c34)cccc2o1
discrete label: inactive
--
molecule: CN(C)CCCC1(c2ccc(F)cc2)OCc2cc(C#N)ccc21 (configuration not stated)
discrete label: active
--
molecule: Nc1cc(C(Cl)=C(Cl)Cl)c(S(N)(=O)=O)cc1S(N)(=O)=O
discrete label: inactive
--
molecule: CS(=O)(=O)OCCCCOS(C)(=O)=O
discrete label: inactive
--
molecule: Nc1nc(N)c(N=O)c(OCC2CCCCC2)n1
discrete label: active
--
molecule: C[C@H](Cn1cnc2c(N)ncnc21)OCP(=O)(O)O
discrete label: inactive
